The origin of these recorded values is a melting point compilation (Tetko et al.; mined from patent text by program, amines drawn as free bases though some values may be those of a salt).

# reported melting point; entries follow

smilesNotation | melting point
COCCc1sc(C(C)(O)c2nc(C)c(CCOC)s2)nc1C | 50 to 51 °C
C[C@@H](n1cnc2cc(N(C)C)c(F)cc2c1=O)[C@](O)(Cn1cncn1)c1ccc(F)cc1F | 197 to 198 °C
CC1(C)C=C(c2cccnc2)c2cc(C#N)ccc2O1 | 98 to 99 °C
CC1(C)OC(=S)N(c2cc(C#N)ccc2F)c2ccccc21 | 250 to 251 °C

* * *

# reported melting point; entries follow
readoutLabel: melting point

compound | readoutLabel | result
Fc1cc(OCc2ccccc2)ccc1-c1ncc(Br)cn1 | melting point | 124 °C
Sc1nc2ccccc2n1Cc1cc(Cl)cc(Cl)c1 | melting point | 233 °C
COCCN1C(=S)N(c2ccc(C#N)c(C(F)(F)F)c2)C(=O)C1(C)C | melting point | 98 to 99 °C
COC(=O)c1cc2cccc(C=O)c2[nH]1 | melting point | 87 °C
NC(=O)Nc1ccc(-c2c[nH]c(=O)cn2)cc1 | melting point | > 300 °C
COC(=O)c1ccc(OC(F)(F)F)c(O)c1 | melting point | 95 to 97 °C
CN(c1cccc2cc(C(=O)NCC(C)(CN3CCOCC3)SCc3ccccc3)[nH]c12)S(=O)(=O)c1cccs1 (centres undefined) | melting point | 150 to 152 °C
CCc1nc2c(O)c(CCC(O)c3ccccc3)c(C(=O)N(C)C)cc2n1C (centres undefined) | melting point | 121 to 124 °C
O=C(CN1CCOCC1)Nc1cccc2c1C(=O)c1c-2n[nH]c1-c1ccc(N2CCOCC2)cc1 | melting point | 258 °C
OCc1cn(Cc2ccc(OCc3csc(-c4ccccc4)n3)cc2)nc1-c1cccs1 | melting point | 147 to 148 °C
CCN(CC)c1nc(-c2ccc(OC)c(OC)c2)nc2sc(C#N)c(C)c12 | melting point | 159 to 161 °C
c1ccc(N(Cc2ccc(OCOc3ccc(CN(c4ccccc4)c4ccccc4)cc3)cc2)c2ccccc2)cc1 | melting point | 99 to 100 °C
CCOC(=O)c1nnc(-c2ccc(S(C)=O)cc2)o1 (centres undefined) | melting point | 129 to 131 °C
COc1cc(OC)cc(N2CCN(C(=S)Nc3cc4ccccc4nc3C)CC2)c1 | melting point | 211 to 212 °C
COc1c(C)c(C)c(OC)c(Cn2ccnc2)c1C | melting point | 82 to 83 °C
CN1C(=S)N(c2cc(Cl)cc(Cl)c2)C(O)C1O (centres undefined) | melting point | 143 °C
COC1CN(C(=O)c2cc(-c3ccccc3)c(=O)n3c2-c2sccc2C3)C1 | melting point | 192 to 193 °C
O=C(CNC(=O)C(Cc1ccccc1)C(=O)NOCc1ccccc1)OCc1ccccc1 (centres undefined) | melting point | 70 °C
CCS(=O)(=O)Cc1ccc(Oc2ccc(NC(C)=O)cc2)cc1 | melting point | 186 °C
Cc1c(C(=O)NN2CCCCC2)nn(-c2ccc(Cl)cc2Cl)c1-c1ccc(OS(=O)(=O)CCC(F)(F)F)cc1 | melting point | 160 °C
COC(=O)c1ccc(OC)c(NC(=N)c2ccc(F)c(Cl)c2)c1 | melting point | 120 °C
N#Cc1cccnc1N1CCN(CC(=O)Nc2cccc(C(F)(F)F)c2F)CC1 | melting point | 118 to 121 °C
COc1ccc(Cl)c(S(=O)(=O)NC(=O)c2cn3cc(C(F)(F)F)cc(Cl)c3n2)c1 | melting point | 211 to 212 °C
O=C1NC(=O)C(Cc2ccc(Oc3ccc(Oc4ccc(CC5OC(=O)NC5=O)cc4)cc3)cc2)O1 (centres undefined) | melting point | 93 to 96 °C
CC1=CC(O)C(OC(=O)c2ccccc2)C(C)(C)CC1OC(=O)c1ccccc1 (centres undefined) | melting point | 142 to 144 °C
O=C(O)COc1cccc(NCc2nc(-c3ccccc3)c(-c3ccccc3)o2)c1 | melting point | 146 to 151 °C
COc1cccc(C2(Cn3ccnc3)CC(CSc3ccc(C)cc3)ON2C)c1 (centres undefined) | melting point | 107 to 108 °C
Cc1c(Br)c2cnnc(Cl)c2n1Cc1ccccc1 | melting point | 138 to 140 °C
O=C1Nc2nnccc2C(=O)C1c1c(F)cc(F)cc1F (centres undefined) | melting point | > 330 °C
COc1cccc(-n2c(=O)c3c(c4cccnc42)OC(COC(C)=O)C3)c1 (centres undefined) | melting point | 183 to 184 °C
CCc1cccc(C)c1CNc1cc(C(=O)N(C)C)nc2c(CO)c(C)[nH]c12 | melting point | 280 °C
CCC(=O)OCCN1CCc2cc(Nc3ncc(Cl)c(Nc4ccccc4S(=O)(=O)N(C)C)n3)c(OC)cc2CC1 | melting point | 40 °C
CC(C)(C)c1cc(-c2nn(Cc3ccccc3)c3ncccc23)cc(C(C)(C)C)c1O | melting point | 155 to 157 °C
O=C(O)Cn1cc(Cc2nc3c(F)c(F)cc(F)c3s2)c2ccc(N3CCOCC3)cc21 | melting point | 178 to 180 °C
